system: P-388; experiment: Inhibition of cell growth by counting cells, P-388; format: cell-based, mouse; details: Mus musculus, P388, 72 h; three days of incubation; read-out: IC50 (molar) P-388
As shown below, each of these compounds has a reported IC50 value.

{"columns": ["COMPOUND", "IC50"],
 "data": [
  ["COc1cc2c(cc1OC(=O)OC(C)(C)C)CCN[C@]21CS[C@@H]2c3c(OC(C)=O)c(C)c4c(c3[C@H](COC1=O)N1C2[C@H]2c3c(cc(C)c(OC)c3O)C[C@@H]([C@@H]1O)N2C)OCO4 (stereo partly shown)", "0.116 nM"],
  ["COc1cc2c(cc1OC(=O)/C=C/c1ccccc1)CCN[C@]21CS[C@@H]2c3c(OC(C)=O)c(C)c4c(c3[C@H](COC1=O)N1C2[C@H]2c3c(cc(C)c(OC)c3O)C[C@@H]([C@@H]1C#N)N2C(=O)OC(C)(C)C)OCO4 (stereo partly shown)", "50.7 nM"],
  ["COc1cc2c(cc1O)CCN[C@]21CS[C@@H]2c3c(OC(C)=O)c(C)c4c(c3[C@H](COC1=O)N1C2[C@H]2c3c(cc(C)c(OC)c3OC(=O)OC(C)(C)C)C[C@@H]([C@@H]1C#N)N2C)OCO4 (stereo partly shown)", "1.15 nM"],
  ["CCCCCCCCCCCCCCCC(=O)Oc1cc2c(cc1OC)[C@@]1(CS[C@@H]3c4c(OC(C)=O)c(C)c5c(c4[C@H](COC1=O)N1C3[C@@H]3N[C@@H](Cc4cc(C)c(OC)c(O)c43)[C@@H]1C#N)OCO5)NCC2 (stereo partly shown)", "5.03 nM"]
]}
